# Test system: SF-268 CNS
# measurement_description: NCI-60 one-dose screen, 48 h (100 = growth as untreated, 0 = no growth, -100 = all killed)
# experimental_context: 10 µM unless noted
The panel holds about 83,000 compounds, 20% with a hit somewhere; the sample as a whole holds those more often.
reported_metric: growth (%)
Express your answer in %, writing the number without its unit.

Incoming: Recorded growth of CCN1CCN(c2nc(C)cc(N(CCCNc3ccnc4cc(Cl)ccc34)Cc3ccco3)n2)CC1 , please.
Outgoing: 55.7

Incoming: What value of growth has been reported for the following molecule? Nc1nc2c3ccncc3cc(-c3cccc(Cl)c3)c2c2cnccc12
Outgoing: 49.5

Incoming: Entry c1cnc2[nH]cc(-c3csc(-c4cn(CCCN5CCCCC5)c5ccccc45)n3)c2c1 : reported growth = ?
Outgoing: 58.9

Incoming: Entry under review: CC(C)=CCC[C@](C)(O)[C@H]1CC[C@]2(C)[C@@H]1CC[C@@H]1[C@@]3(C)C/C(=C/c4ccc(Br)cc4)C(=O)C(C)(C)[C@@H]3CC[C@]12C . Reported growth?
Outgoing: 92.6

Incoming: For Cc1cc(N2CCN(C)CC2)nc(N(CCNc2ccnc3cc(Cl)ccc23)Cc2ccco2)n1 , what is its reported growth?
Outgoing: 52.8

Incoming: Please give the measured growth for this molecule: COc1ccc(C2c3ccccc3NC(=O)N2C2CCN(C)CC2)c(OC)c1 (centres undefined)
Outgoing: 98.2

Incoming: Which growth reading was recorded for the molecule Cc1cccc(C)c1NC(=O)CSC(=S)N1CCN(CCOCCO)CC1 ?
Outgoing: 93.9

Incoming: Data request, read-out growth, for C#Cc1cc2c(N)c(C(=O)c3cc(OC)c(OC)c(OC)c3)[nH]c2cc1OC
Outgoing: 49.6

Incoming: Quick one: growth of O=C1/C(=C\c2ccco2)SC(=S)N1CCc1ccc(O)cc1 ?
Outgoing: 94.8

* * *

# System: 786-0 renal
# measurement_description: NCI-60 one-dose screen, 48 h
# experimental_context: 10 µM unless noted
# Protocol: Cells are grown in 96 well plates and exposed to the test compound for 48 hours. Compounds are tested at a single concentration, which is 10^-5 M for most compounds. The reported endpoint is percent growth (GI% or GIPRCNT), where numbers from 0 - 100% represent growth inhibition, and numbers from -100% - 0 represent cell death. For example, a value of 40 represents 60% growth inhibition. A value of 0 means no net growth occurred over the course of the experiment. […]
Compounds without any hit were thinned out: in the full panel of roughly 83,000, 20% have a hit. Active and inactive are the calls of the source. How the source made its calls: active means growth percent below 10; inactive means the rest.
// allowed return values: True (active), False (inactive)

Incoming: Please let me know the test result on file for COc1cc2nc(Cl)nc(Nc3cccc(C(=O)/C=C/c4ccc(Cl)cc4)c3)c2cc1OC .
Outgoing: False

Incoming: Per the assay record, what outcome was assigned to Cn1cc(-c2nc(-c3c[nH]c4ncccc34)cs2)c2cc(F)ccc21 ?
Outgoing: False

Incoming: Any idea what this test logged for CCOc1ccc(NC(=O)c2ccccc2-c2ccccc2C(=O)O)cc1 ?
Outgoing: False

Incoming: Outcome? CN1CCN(c2nc(-c3csc(-c4cccs4)n3)cc3ccccc23)CC1
Outgoing: False

Incoming: Please indicate how the test categorized CC(=O)n1c(/C(C#N)=C/c2ccc(N(C)C)cc2)cc2ccccc21 .
Outgoing: False

Incoming: Can you look up the reported call for COc1ccc2c(c1)c(-c1nc(-c3cn(C)c4ncccc34)cs1)cn2CCCN1CCCCC1 for me?
Outgoing: True

Incoming: Assay result, entry C=C(C)[C@@H]1CC[C@]2(C(=O)N3CCN(CC)CC3)CC[C@]3(C)[C@H](CC[C@@H]4[C@@](C)(CCC(=O)N5CCN(CC)CC5)[C@H](C(=C)C)CC[C@]43C)[C@@H]12 — outcome?
Outgoing: True

Incoming: Short answer needed: outcome of this test for Cn1cc(-c2csc(-c3cn(CCN)c4ccc(F)cc34)n2)c2cccnc21 ?
Outgoing: False

Incoming: Hi, sorry to bother you, what did the test record for OCCNc1nc(Nc2ccc(Cl)c(Cl)c2)nc2ccccc12 ?
Outgoing: False

Incoming: Would you mind telling me which call this test gave O=C(O)/C(=C/c1ccc(O)cc1)c1ccccc1 ?
Outgoing: False

Incoming: Write down the call the test reported for this molecule. Item: OCC(CO)(CCl)CCl
Outgoing: False

Incoming: Identify the outcome logged in this assay for the molecule shown: COc1ccc2[nH]c(-c3ccc(Cl)cc3)cc(=O)c2c1
Outgoing: False

Incoming: Recorded test outcome, item CC(C)(C)n1cc(-c2ccnc(NCCCNS(=O)(=O)c3ccc(Cl)cc3)c2)c(-c2cccc(F)c2)n1
Outgoing: False

Incoming: Dear colleague, could you share the recorded outcome for CN(C)c1ccc(N)c2ccccc12 when you have a moment?
Outgoing: False

Incoming: // return assay outcome for COc1ccc(-c2nc3ncccn3c2-c2nc3ccc(Br)cc3[nH]2)cc1
Outgoing: False

Incoming: I would be grateful if you could indicate the recorded call for C=COCCCCCCCCCCCCCCCCCC .
Outgoing: False

Incoming: What is the recorded call for this molecule in the test? COC(=O)CNc1nc(N(C)O)nc(N(C)O)n1
Outgoing: False

Incoming: Assay result, entry COc1cc2nc(Cl)nc(Nc3cccc(C(=O)/C=C/c4ccc(F)cc4)c3)c2cc1OC — outcome?
Outgoing: False

Incoming: Per the records of this test, what outcome belongs to CCOC(=O)N1CCN(CCCCOc2ccc(C(C)(C)CC)cc2)CC1 ?
Outgoing: False

Incoming: Hi, do you know how Nc1c(C(=O)Nc2cccc3ccccc23)sc2nc3c(cc12)CCCC3 came out in this test?
Outgoing: False

Incoming: Which outcome was assigned to COc1cc(-c2cc(-c3nc4ccc(F)cc4[nH]3)[nH]n2)cc(OC)c1OC in this test?
Outgoing: False

Incoming: Per the records of this test, what outcome belongs to O=C1OC(c2ccc(Cl)c(Cl)c2)=C/C1=C/c1cccc([N+](=O)[O-])c1 ?
Outgoing: False

* * *

# System: HOP-92 NSCLC
# measurement_description: NCI-60 one-dose screen, 48 h
# experimental_context: 10 µM unless noted
The panel holds about 83,000 compounds, 20% with a hit somewhere; the sample as a whole holds those more often. Active and inactive are the calls of the source. The calls were made as follows: active = growth percent below 10; inactive = the rest.
Mark one answer only. Choices: 1.0 for active, 0.0 for inactive

Incoming: What is the recorded call for this compound in the test? O=C1CCCC=CC[C@H]2C=C(Cl)C(=O)C2=CC[C@H](CCCCC(F)(F)F)OC(=O)CCCC=CC[C@H]2C=C(Cl)C(=O)C2=CC[C@H](CCCCC(F)(F)F)OC(=O)CCCC=CC[C@H]2C=C(Cl)C(=O)C2=CC[C@H](CCCCC(F)(F)F)O1
Outgoing: 0.0

Incoming: Recorded test outcome, item COc1ccc(/C=C/C(=O)NCC(C)O)cc1 (centres undefined)
Outgoing: 0.0

Incoming: Give the logged outcome of this assay for the following compound: C=C(C)[C@@H]1CC[C@]2(C(=O)N3CCN(CC)CC3)CC[C@]3(C)[C@H](CC[C@@H]4[C@@](C)(CCC(=O)N5CCN(CC)CC5)[C@H](C(=C)C)CC[C@]43C)[C@@H]12
Outgoing: 0.0

Incoming: Answer briefly: the call reported for CC(=O)O[C@H]1CC[C@]2(C)[C@H]3C(=O)C=C4[C@@H]5C[C@](C)(C(=O)N6CCCNCC6)CC[C@]5(C)CC[C@@]4(C)[C@]3(C)CC[C@H]2C1(C)C in this assay.
Outgoing: 0.0

Incoming: Please indicate how the test categorized CCSc1ncnc2c1ncn2C1OC(CO)C(O)C1O (centres undefined) .
Outgoing: 0.0

Incoming: Please share the test call associated with Cc1cc(N2CCCC2)nc(N(CCNc2ccnc3cc(Cl)ccc23)Cc2ccco2)n1 .
Outgoing: 1.0

Incoming: Assay result, entry Cc1ccc(-c2nn(Cc3cn(-c4cc(C)nc5ccccc45)nn3)c3ncnc(N)c23)cc1 — outcome?
Outgoing: 1.0

Incoming: Give the logged outcome of this assay for the following compound: Clc1ccccc1-c1nc(Nc2nc3ccccc3s2)nc(C(Cl)(Cl)Cl)n1
Outgoing: 0.0

Incoming: Per the records of this test, what outcome belongs to Cc1cccc(C)c1NCc1nc(-c2ccccc2)n[nH]1 ?
Outgoing: 0.0

Incoming: Can you look up the reported call for O=[N+]([O-])c1cccc(/C=N\Nc2ccccc2)c1 for me?
Outgoing: 0.0

Incoming: Recorded test outcome, item C(=C\c1c[nH]c2ccccc12)/c1ccc2ccccc2n1
Outgoing: 0.0

Incoming: For CN(CSc1ccc(Cl)cc1)c1ccc(CSc2ccc(Cl)cc2)cc1 , what call appears in the results of this test?
Outgoing: 0.0

Incoming: Just curious, what result did Cn1cc(-c2csc(-c3cn(CCN)c4ccccc34)n2)c2cccnc21 get here?
Outgoing: 0.0

Incoming: Dear all, I need the recorded test outcome for Nc1c(C(=O)Nc2c(Cl)cccc2Cl)sc2nc3c(cc12)CCCC3 , thank you.
Outgoing: 0.0

Incoming: Given C=C1C(=O)O[C@H]2[C@H]1CC/C(COC(=O)NCCc1c[nH]c3ccccc13)=C\CC[C@@]1(C)O[C@@H]21 , state the outcome it received in this test.
Outgoing: 1.0

Incoming: Recorded call for C/C(=N\Nc1ccc2ccccc2n1)c1ccccn1 ?
Outgoing: 1.0

Incoming: Tell me the recorded outcome of this test for COc1ccc(-c2nc3ccccn3c2-c2nc3ccc(Cl)cc3[nH]2)cc1 .
Outgoing: 0.0

Incoming: How did this test come out for Cn1cc(-c2nc(-c3c[nH]c4ncccc34)cs2)c2cc(F)ccc21 ?
Outgoing: 0.0

Incoming: Please let me know the test result on file for COc1cccc(-c2nn(-c3ccccc3)cc2-c2ccnc(NCCCNS(=O)(=O)c3ccc(C(F)(F)F)cc3)c2)c1 .
Outgoing: 1.0
